# key: entry, value: EC50
# TESTED_SYSTEM: human FXR (Homo sapiens, UniProt Q96RI1)
# Sequence (Q96RI1 whole entry): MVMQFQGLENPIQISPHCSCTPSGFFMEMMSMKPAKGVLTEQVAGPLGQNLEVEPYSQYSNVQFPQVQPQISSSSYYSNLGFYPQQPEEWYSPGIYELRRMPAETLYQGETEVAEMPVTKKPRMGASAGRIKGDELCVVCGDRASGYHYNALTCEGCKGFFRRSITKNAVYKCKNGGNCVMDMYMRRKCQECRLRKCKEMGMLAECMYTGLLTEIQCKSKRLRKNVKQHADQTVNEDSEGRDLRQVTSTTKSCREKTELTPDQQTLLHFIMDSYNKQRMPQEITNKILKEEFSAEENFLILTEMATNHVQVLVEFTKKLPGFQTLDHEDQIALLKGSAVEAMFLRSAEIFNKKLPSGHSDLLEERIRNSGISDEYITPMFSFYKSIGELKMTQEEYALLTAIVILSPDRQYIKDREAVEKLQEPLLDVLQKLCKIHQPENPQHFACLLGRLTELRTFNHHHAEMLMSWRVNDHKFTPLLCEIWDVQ
# ASSAY_PROTOCOL: FXR reporter assay (cellular FXR activities)
# TEST_CONTEXT: FXR reporter cells, 24 hours incubation, luciferase; read-out: Reporter Cell EC50

Please review the entries below; each comes with its answer.
[
  {
    "SAMPLE_SMILES": "O=C(O)c1cc(C#Cc2ccc(OCc3c(-c4c(Cl)cccc4Cl)noc3C3CC3)cc2Cl)cc2nc(C3CC3)oc12",
    "TESTED_SYSTEM": "human FXR (Homo sapiens, UniProt Q96RI1)",
    "TEST_VALUE": "≤ 20 nM"
  },
  {
    "SAMPLE_SMILES": "O=C(O)c1cccc(C#Cc2ccc(OCc3c(-c4c(Cl)cccc4Cl)noc3C3CC3)cc2Cl)c1Cl",
    "TESTED_SYSTEM": "human FXR (Homo sapiens, UniProt Q96RI1)",
    "TEST_VALUE": "200 to 1000 nM"
  },
  {
    "SAMPLE_SMILES": "O=C(O)c1cc(C#Cc2ccc(OCc3c(-c4c(Cl)cccc4Cl)noc3C3CC3)cc2Cl)cc(CNCC(F)(F)F)c1",
    "TESTED_SYSTEM": "human FXR (Homo sapiens, UniProt Q96RI1)",
    "TEST_VALUE": "60 to 200 nM"
  },
  {
    "SAMPLE_SMILES": "CCCc1nc2cc(C#Cc3ccc(OCc4c(-c5c(Cl)cccc5Cl)noc4C4CC4)cc3Cl)cc(C(=O)O)c2o1",
    "TESTED_SYSTEM": "human FXR (Homo sapiens, UniProt Q96RI1)",
    "TEST_VALUE": "≤ 20 nM"
  },
  {
    "SAMPLE_SMILES": "O=C(O)c1cc(C#Cc2ccc(OCc3c(-c4c(Cl)cccc4Cl)noc3C3CC3)cc2Cl)cc(CN2CCOCC2)c1",
    "TESTED_SYSTEM": "human FXR (Homo sapiens, UniProt Q96RI1)",
    "TEST_VALUE": "20 to 60 nM"
  },
  {
    "SAMPLE_SMILES": "CCOC(=O)Nc1cccc(C#Cc2ccc(OCc3c(-c4c(Cl)cccc4Cl)noc3C3CC3)cc2Cl)c1",
    "TESTED_SYSTEM": "human FXR (Homo sapiens, UniProt Q96RI1)",
    "TEST_VALUE": "> 1000 nM"
  }
]

Moving on to another compound below.
// lookup EC50 for CC(C)c1cc(C#Cc2ccc(OCc3c(-c4c(Cl)cccc4Cl)noc3C3CC3)cc2Cl)cc(C(=O)O)c1 60 to 200 nM
